test_details: yeast display, Sf9 membrane polyspecificity reagent, FACS + sequencing; frameworks hold sequencing errors
quantity_kind: polyreactivity (PSR sort gate)

[
  {
    "sequence_text": "QVQLVESGGGLVQAGGSLRLSCAASGSTFAYYVMGWYRQAPGTERELVAAITSSGGRTYYADSVKGRFTISRDNAKNTVYLQMNSLKPEDTAVYYCAKVSQRGVDNSDYDYWGQGTQVTVSS",
    "value_observed": "high polyreactivity"
  },
  {
    "sequence_text": "QVPLVESGGGLVQAGGSLRLSCAASGSTFSGYAMGWYRQAPGKERELVATITSTGSTNYADSVKGRFTISRDNAKNTVYLQMNSLKPEDTAVYYCNARYLFVERYFLHYASVRYDYWGQGTQVTVST",
    "value_observed": "low polyreactivity"
  },
  {
    "sequence_text": "QVQLVDSGGGLVQAGGSLSLSCAASGRTFYPYAMGWYRQAPGKERELVARISRGGRTNYADSVKGRFTISRDNAKNTVYLQMNSLKPEDTAVYYCAAVYYGSYFITEDYWGQGTQVTVSS",
    "value_observed": "low polyreactivity"
  },
  {
    "sequence_text": "QVQLVESGGGLVQEGGSLRLICAASGLIFRTYTMGWYRQAPGKERELVATITRRGGTTYYADSVKGRFTISRDNAKNTVYLQMNSLKPEDTAVYYCAKSPYYTWKYDYWGQGTQVTVSS",
    "value_observed": "high polyreactivity"
  },
  {
    "sequence_text": "QVQLVESGGGLVQAGGSLRLSCAASGLTFYVYAMGWYRQAPGKERELVAAISSGGRTYYADSVKGRFTISRDNAKNTVYLQMNSLKPEDTAVYYCAARSPVWRTTEDYWGQGTQVTVSS",
    "value_observed": "high polyreactivity"
  },
  {
    "sequence_text": "QVQLVESGGGLVQAGGSLRLTCAASGRTFKFNAMGWDRQAPGKERELVAGITWTGSTTSYADSVKGRFTISRDNAKNTVYLQMNSLKPEDTSVYYCAADKIRFWYHGFYYRGQGTQVTVSS",
    "value_observed": "low polyreactivity"
  },
  {
    "sequence_text": "QVQLVESGGGLVQAGGSLRLSCAASGRIFPYYAMGWSRQAPGKERELVAAITSGGTTYYADSVKGRFTISRDNAKNTVYLQMNSLKPEDTAVYYCEYDYWGQGTQVTVSS",
    "value_observed": "low polyreactivity"
  },
  {
    "sequence_text": "QVQLVESGGGLVQAGGSLRLSCAASGSTFYYYAMGWYRQAPGKERELVAAINYNGGSTHYADSVKGRFTISRDNAKNTVYFQMNSLKPEDTAVYYCAAKYRLSYTHGYWGQGTQVTVSS",
    "value_observed": "low polyreactivity"
  },
  {
    "sequence_text": "QVQLVESGGGLVQAGGSLRLSCASSGSTIVHYAMGWYRQAPGKERELVAGITDTDNHELRRLCEGRFTISRDNAKNTVYLQMNSLKPEDTAVYFCNADDTYYQLGGITGYDYWGQCTQVTVSS",
    "value_observed": "low polyreactivity"
  },
  {
    "sequence_text": "QVQLVESGGGLVQAGGSLRLSCAASGLIFRNYAMGWYRQAPGKERELVAAISSGGDNTYYADSVKGRFTISRDNAKNTVYLQMNSLKPEDTAVYYCAAGRYVGPSYYAYGYWGQGTQVTVSS",
    "value_observed": "high polyreactivity"
  },
  {
    "sequence_text": "QVQLVESGGGLVQAGGSLRLSCAASGITFSYYAMGWYRKAARKERELVAAINGGGSRTYYADSVKGRFTISRDNAKNTVYLQMNSLKPEETAVYYCAAYSGQARGYDYWGQGTQVTVSS",
    "value_observed": "high polyreactivity"
  },
  {
    "sequence_text": "QVQLVESGGGLVQAGGSLRLSCAASGSTLGRNAMGWYRQAPGKERELVAAISSTGGSTSYADSVKGRFTISRDNAKNTVYLQMNSLKPEDTAVYYCAKRFSPRYYYWGQGTQVTVSS",
    "value_observed": "high polyreactivity"
  },
  {
    "sequence_text": "QVQLVESGGGLVQAVGSLRLSCAASGFPFRRYALGCYRQAPGKERELDATISSSGASTYYADSVKGRFTISRDHAKNTVYFKMIRLKPVDTAVYYCAATKGSICKLYLYCLFDYWGQGTQVTVSS",
    "value_observed": "high polyreactivity"
  },
  {
    "sequence_text": "QVQLVESGGGLVQAGGSLRLSCAASGSTFKIYAMGWYRQAPGKERELVARITGRGGSTYYADSVKGRFTISRDNAKNTVYLQMNSLKPEDTAVYYCAARVYTYYYDLHKRYYWGQGTQVTVSS",
    "value_observed": "high polyreactivity"
  },
  {
    "sequence_text": "QVQLVESGGGLVQAGGSLRLSCAASGFTFQYYTMGWYRQAPGKERELLAAITYSGSTYYADSVKGRFTISRDNAKNTVYLQMNSLKPEDTAVYYCNVYRGRYLYAWRPLGYWGQGTQVTVSS",
    "value_observed": "high polyreactivity"
  },
  {
    "sequence_text": "QVQLVESGGGLVQAGGSLRLSCAASGRIFQYYAMGWYRQAPGKERELVAAITRSGGRTYYADSVKGRFTISRDNAKNTVFLQMNSLKPEDTAVYYCAARDWYYTMYYWGQGTQVTVSS",
    "value_observed": "high polyreactivity"
  },
  {
    "sequence_text": "QVQLVESGGGLVQAGGSLRLSCAASGRTFFSYTMGWYRQAPGKEREFVAAITTSGGYTHYADSVKGRFTISRDNAKNTVYLQMNSLIPEDTAVYYCAAVGRYPYKGYNYWGQGTQVTVSS",
    "value_observed": "high polyreactivity"
  },
  {
    "sequence_text": "QDQLVESGGGLVQAGGSLRLSCAASGSIFFTNDMGWYRQAHGKEREFVAAITGGGGSTYYADSVKGRFTISRDNAKNTVYLQMNSLKPEDTAVYYCATKAKPRSGYNYWGQGTQVTVSS",
    "value_observed": "low polyreactivity"
  },
  {
    "sequence_text": "QGQLVVSGGGLVQAGGSLRLSCAASGRTFYWNAMGWSIQAPGKERELFASINGGGSTYYADSVKGRFTISRDNAKNTVYLQMYSLKPEDTAVYYCNAESYEFHRAWGDYDDWGHGTQVTVSS",
    "value_observed": "low polyreactivity"
  },
  {
    "sequence_text": "QVQLVESGGGLVQAGGSLRLSCAASGGTFGVYTMGWYRQAPGKERELVAAISWSGGSTYYADSVKGRFTISRDNAKNTVYLQMNSLKPEDTAVYYCAARLKYGRIRVDHWGQGTQVTVSS",
    "value_observed": "high polyreactivity"
  },
  {
    "sequence_text": "QVQLVESGGGLVQAGGSLRLSCAASGFTLQGYAMGWYRQAPGKERELVAAIRWIGTSTYYADSVKGRFTISRDIAKNTVYLQMNSLKPEDTAVYYCAAYRYNTPFGYWGQGTQVTVSS",
    "value_observed": "high polyreactivity"
  }
]

====

test_details: yeast display, Sf9 membrane polyspecificity reagent, FACS + sequencing; frameworks hold sequencing errors
quantity_kind: polyreactivity (PSR sort gate)

[
  {
    "sequence_text": "QVQLVESGGGLVQAGGSLRLSCAASGFTFRKYAMGLYRQAPGKERELVASITSGGSTYYADSVKGRFTISRDNAKNTVYLQMNSLKPEDNAVYYCNAVKATLASGRLRGAYYYWGQGNQVTVSS",
    "value_observed": "high polyreactivity"
  },
  {
    "sequence_text": "QVQLVESGGGLVQAGGSLRLSCAASGRTFKYYAMGWYRQAPGKERELVAAITSTGGSTYYADSVKGRFTISRDNAKNTVYLQMHSLKPEDTAVYYCNRYTQYRDRSDNHWGQGTQVTVSS",
    "value_observed": "high polyreactivity"
  }
]

====

test_details: yeast display, Sf9 membrane polyspecificity reagent, FACS + sequencing; frameworks hold sequencing errors

[
  {
    "sequence_text": "QVQLVESGGGLVQAGGSLRLSCAASGSIFPIYAMGWYRQAPGKERELVAAINRSGGSTYYADSVKGRFTISRDNAKNTVYLQMNSLKPEDTAVYYCNADYGYHNQLFWGYYGWSSDHWGQGTQVTVSS",
    "polyreactivity (PSR sort gate)": "low polyreactivity"
  },
  {
    "sequence_text": "QVQLVESGGGLVQAGGSLRLSCDASGSIFSHYAMGWYRQAPGKERELVATITWRGGSNTNYADSVKGRFTISRDNAKNTVYLQMNSLKPEDTAVYYCAADGDGYYYWGQGTQVTVSS",
    "polyreactivity (PSR sort gate)": "low polyreactivity"
  }
]

====

test_details: yeast display, Sf9 membrane polyspecificity reagent, FACS + sequencing; frameworks hold sequencing errors
quantity_kind: polyreactivity (PSR sort gate)

[
  {
    "sequence_text": "QVQLVESGGGLVQAGGSLRLSCAASGRIFRTYAMGWYRQAPGKERELVAGITWRGTSTYYADYVKGRFTISRDNAKNTVYLQLNSLKPEDTAVYYCAAEWKGYYVHDYWGQGTQVTVSS",
    "value_observed": "high polyreactivity"
  },
  {
    "sequence_text": "QVQLVESGGGLVQAGGSLRLSCAASGNIFSDYTMGWYRQAPGKERELVAAISGDGGTTYYADSVKGRFTISRDNAKNTVYLQMNSLKPEDTAVYYCAADGYYDAYDQFFIVYYEYDYWGQGTQVTVSS",
    "value_observed": "low polyreactivity"
  },
  {
    "sequence_text": "QVQLVESGGGLVQAGGSLRLSCAASGSTFNTYAMGWYRQAPGKERELVAAITWRGGRTYYADSVKGRFTISRDNAKNTVYLQMNSLKPEDTAVYYCNTLRPRLDGVYGYDYWGQGTQVTVSS",
    "value_observed": "high polyreactivity"
  },
  {
    "sequence_text": "QVQLVESGGGLVQAGGSLRLSCAASAAIFTKNAMGWYRQAPAKERELVAAITGSGASTYYADSVKGRFTISRDNAKNTVYLQMNSLKPEDTAVYYCNTDSPYGWEGEFDYWGQGTQVTVSS",
    "value_observed": "high polyreactivity"
  },
  {
    "sequence_text": "QVQLVESGGGLDQAGGSLRLSCAASGSIFVPYAMGGYRQAPGKERELVAAITSGDSTYYADSVKGRFTISRDNAKNNVYLQMNSLKPEDTAVYYCAADIRPTLSLLSLFDYEYWGQGTQVTVSS",
    "value_observed": "low polyreactivity"
  },
  {
    "sequence_text": "QVQLVESGGGLVQAGVSLRLSCPASGRTFGWYAMGWYRQAPGTERELVAAITSGTSTYYADSVKGRFTISRDNAKNTVYLQMNSLKPEDTAVYYCAVDRGISVGYTRFDYWGQGTQVSVSS",
    "value_observed": "low polyreactivity"
  },
  {
    "sequence_text": "QVQLVESGGGLFQAGGSLRLICAASGRTYYAYARGWYRQAPGKERELVAAITSGGSTYYADSVKGRFTISRDNAKNTVYLQMNSLKPEDTAVYYCNAGYYQWPFSGYDYWGQGTQVTVSS",
    "value_observed": "low polyreactivity"
  },
  {
    "sequence_text": "QVQLVESGGGLVQAGGSLRLSCADSGSTFRRYAMGWYRQAPGKERELVAAISWSGGSTYYADSVKGRFTISRDNAKNTVYLQMKSLKPEDTAVYYCAARGVTSYWQDYDYWGQGTQVTVSS",
    "value_observed": "low polyreactivity"
  },
  {
    "sequence_text": "QVQLVESGGGLVQAGGSLRLSCAASGFIFDWNTMGWYRQAPGKERELVAAITESSGSTYYADSVKGRFTISRDNAKNTVYLQMNSLKPEDTAVYYCAADFSYVYYLYDYWGQGTQVTVSS",
    "value_observed": "low polyreactivity"
  },
  {
    "sequence_text": "QVQLVESGGGLVQAGGSLRLSCAASGSTLGVNAMGWYRQAPGKEREFVSSITGRVGNTYYADSVKGRFTISRDNAKNTVYLQMNSLKPEDTAVYYCAARVKYTRYQSILDYYYWGQGTQVTVSS",
    "value_observed": "high polyreactivity"
  },
  {
    "sequence_text": "QVHLVESGGGLVQAGGSLRLSCAASGSTFSGYAMGWYRQAPGKERELVATITRRGGNTYYADSLKGRFTISRDNAKNTVYLQMNSLKPEDTAVYYCAKDGRVHSPYDYWGQGTQVTVSS",
    "value_observed": "low polyreactivity"
  }
]
